# reported EC50; entries follow
Test: Anti-HIV activity was evaluated by measuring the growth inhibition of acutely infected H9 lymphocytes as EC50.
Assay type: functional
Conditions: Human immunodeficiency virus 1

Answered examples (3):
Smiles Repr	EC50
COc1c(Br)c(C(=O)O)c(-c2c3c(c(OC)c(Br)c2C(=O)OCC[N+](C)(C)C)OCO3)c2c1OCO2.[Cl-]	> 100 µg/mL
COC(=O)c1cc(OC(=O)c2ccccc2)c(OC(=O)c2ccccc2)c(OC)c1-c1c(OC)c(OC(=O)c2ccccc2)c(OC(=O)c2ccccc2)c(Br)c1C(=O)OC	> 100 µg/mL
COc1c(Br)c(C(=O)[O-])c(-c2c3c(c(OC)c(Br)c2C(=O)[O-])OCO3)c2c1OCO2.[Na+].[Na+]	> 100 µg/mL

Data request: Query: EC50; subject: `CCCCCCOC(=O)c1c(Br)c(OC)c2c(c1-c1c3c(c(OC)c(Br)c1C(=O)OCCCCCC)OCO3)OCO2`
Data returned: 2 µg/mL

Data request: Query: EC50; subject: `Br.COc1c(Br)c(C(=O)O)c(-c2c3c(c(OC)c(Br)c2C(=O)NCCN2CCCC2)OCO3)c2c1OCO2`
Data returned: > 100 µg/mL

Data request: Query: EC50; subject: `COc1c(OC(=O)c2ccccc2)c(OC(=O)c2ccccc2)c(Br)c(CO)c1-c1c(CO)c(Br)c(OC(=O)c2ccccc2)c(OC(=O)c2ccccc2)c1OC`
Data returned: > 100 µg/mL

Data request: Query: EC50; subject: `COc1c(Br)c(C(=O)O)c(-c2c3c(c(OC)c(Br)c2C(=O)O)OCO3)c2c1OCO2`
Data returned: > 100 µg/mL

* * *

Assay: Anti-HIV activity was evaluated by measuring the growth inhibition of acutely infected H9 lymphocytes as EC50.
Format: functional
Conditions: Human immunodeficiency virus 1
Satisfied if EC50 is below 20 µg/mL. Not satisfied if not; exact matches included in Not satisfied.

// known answers, use as guide
Compound	Label
COc1c(OC(=O)c2ccccc2)c(OC(=O)c2ccccc2)cc(CO)c1-c1c(CO)c(Br)c(OC(=O)c2ccccc2)c(OC(=O)c2ccccc2)c1OC	Not satisfied
COC(=O)c1c(Br)c(OC(=O)c2ccccc2)c(OC(=O)c2ccccc2)c(OC)c1-c1c(OC)c(OC(=O)c2ccccc2)c(OC(=O)c2ccccc2)c(Br)c1C(=O)OC	Not satisfied

Data request: Is 20 µg/mL strictly greater than the compound's reported EC50? compound: `CCOC(=O)c1c(Br)c(OC)c2c(c1-c1c3c(c(OC)c(Br)c1C(=O)O)OCO3)OCO2`
Data returned: Not satisfied

Data request: Is 20 µg/mL strictly greater than the compound's reported EC50? compound: `COc1c(Br)c(C(=O)O)c(-c2c3c(c(OC)c(Br)c2C(=O)NCCN2CCNCC2)OCO3)c2c1OCO2`
Data returned: Not satisfied

Data request: Is 20 µg/mL strictly greater than the compound's reported EC50? compound: COC(=O)c1cc(OC)c2c(c1-c1c(C(=O)OC)cc(OC)c3c1OCO3)OCO2 [BIFENDATE]
Data returned: Satisfied

Data request: Is 20 µg/mL strictly greater than the compound's reported EC50? compound: `COc1c(Br)c(C(=O)O)c(-c2c3c(c(OC)c(Br)c2C(=O)O)OCO3)c2c1OCO2.OCCN1CCCC1.OCCN1CCCC1`
Data returned: Satisfied

Origin of the recorded values: ChEMBL document CHEMBL1128496
